The following compounds are listed with their measured inhibition at 0.123 µM values.
Target: AhR (Homo sapiens, UniProt P35869)
Construct: host or cells: HepG2
Sequence (P35869 11-848): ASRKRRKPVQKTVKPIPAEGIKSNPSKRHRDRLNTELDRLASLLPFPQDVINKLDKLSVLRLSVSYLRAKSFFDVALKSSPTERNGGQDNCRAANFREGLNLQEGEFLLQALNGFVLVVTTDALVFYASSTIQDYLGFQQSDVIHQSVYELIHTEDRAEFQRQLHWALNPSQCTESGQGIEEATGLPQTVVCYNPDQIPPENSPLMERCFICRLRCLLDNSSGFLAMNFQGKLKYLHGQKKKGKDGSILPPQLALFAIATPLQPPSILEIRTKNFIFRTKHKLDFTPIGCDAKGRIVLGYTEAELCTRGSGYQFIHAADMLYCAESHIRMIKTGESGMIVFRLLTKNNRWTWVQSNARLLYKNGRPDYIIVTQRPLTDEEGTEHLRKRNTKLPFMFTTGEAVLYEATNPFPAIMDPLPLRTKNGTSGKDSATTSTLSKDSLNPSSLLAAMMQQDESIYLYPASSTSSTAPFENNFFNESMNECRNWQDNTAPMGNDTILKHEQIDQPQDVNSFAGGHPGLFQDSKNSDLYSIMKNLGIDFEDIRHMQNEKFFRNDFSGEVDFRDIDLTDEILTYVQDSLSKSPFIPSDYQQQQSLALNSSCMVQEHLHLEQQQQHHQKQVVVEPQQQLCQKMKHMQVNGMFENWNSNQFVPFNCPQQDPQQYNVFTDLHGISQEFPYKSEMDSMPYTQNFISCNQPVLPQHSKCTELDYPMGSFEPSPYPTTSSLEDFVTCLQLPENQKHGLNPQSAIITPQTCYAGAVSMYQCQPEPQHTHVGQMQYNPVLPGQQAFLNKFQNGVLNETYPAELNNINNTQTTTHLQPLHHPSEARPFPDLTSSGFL
Assay: In vitro assay 4: endogenous AhR activity assay (CYP1A1 and CYP1B1 mRNA, qRT-PCR, HepG2 cells)
Format: cell-based
Settings: TCDD 10 nM with compound 123 nM, 4 hours, mRNA relative to β-actin, read-out: CYP1A1 (% Inhibition)
Give the number; % is assumed, so skip it.

query: Sample CC(CO)n1cnc2c(-c3cccnc3)nc(-c3ccc(Cl)cc3)cc2c1=O (centres unmarked) [Example 46] — what was its inhibition at 0.123 µM?
result: 90.7

query: Sample CC(CO)n1cnc2c(-c3cnn(C)c3)nc(-c3ccc(C(F)(F)F)cc3)cc2c1=O (centres unmarked) [Example 45] — what was its inhibition at 0.123 µM?
result: 99.6

query: Sample Cn1cc(-c2nc(-c3ccc(C(F)(F)F)cc3)cc3c(=O)n([C@H]4CCCC[C@H]4O)cnc23)cn1 [Example 17] — what was its inhibition at 0.123 µM?
result: 90.7

query: Sample O=c1c2cc(-c3ccc(Cl)cc3)nc(-c3cccnc3)c2ncn1[C@H]1CC[C@H](O)CC1 [Example 56] — what was its inhibition at 0.123 µM?
result: 101

query: Sample CCC(CO)n1cnc2c(-c3cccnc3)nc(-c3ccc(Cl)cc3)cc2c1=O (centres unmarked) [Example 51] — what was its inhibition at 0.123 µM?
result: 99.2

query: Sample CC(CO)n1cnc2c(-c3cccnc3)nc(-c3ccc(N4CCOCC4)cc3)cc2c1=O (centres unmarked) [Example 75] — what was its inhibition at 0.123 µM?
result: 101

query: Sample CC(C)(O)Cn1cnc2c(-c3cccnc3)nc(-c3ccc(Cl)cc3)cc2c1=O [Example 38] — what was its inhibition at 0.123 µM?
result: 100

query: Sample O=c1c2cc(-c3ccc(C(F)(F)F)cc3)nc(-c3cccnc3)c2ncn1CC(O)CO (centres unmarked) [Example 66] — what was its inhibition at 0.123 µM?
result: 100
